- System: MDA-MB-231 breast
- METHOD_NOTES: NCI-60 one-dose screen, 48 h
- ASSAY_SETUP: 10 µM unless noted
About 83,000 compounds went through this panel and 20% of them were active in at least one assay; those are over-represented in the sample as a whole. The source made the active and inactive calls. How the source made its calls: active means growth percent below 10; inactive means the rest.
Hi there, use one of these labels in your reply, thanks! active, inactive

Query: Write down the call the test reported for this molecule. Item: `COc1cc(C(=O)c2cnc(-c3ccc4cc[nH]c4c3)[nH]2)cc(OC)c1OC`
Reply: active

Query: Write down the call the test reported for this molecule. Item: `C[C@]12C[C@H]1CC[C@]1(C)[C@@H]2CC[C@@]23C[C@H](CC[C@H]21)[C@@](O)(CO)C3`
Reply: inactive

Query: Write down the call the test reported for this molecule. Item: `COc1ccc(/C=C\c2nc3ccccc3s2)cc1OP(=O)(O)O`
Reply: inactive

Query: Write down the call the test reported for this molecule. Item: `COc1ccc(CNCCN2C(=O)c3ccc4c5c(ccc(c35)C2=O)C(=O)N(CCNCc2ccc(OC)cc2)C4=O)cc1`
Reply: active

Query: Write down the call the test reported for this molecule. Item: `COc1ccc(-c2nn(Cc3ccccc3)c3c2-c2oncc2CC3)cc1OC`
Reply: inactive

Query: Write down the call the test reported for this molecule. Item: `Cn1ncc2c(Nc3ccccc3Cl)nc(Cl)nc21`
Reply: inactive

Query: Write down the call the test reported for this molecule. Item: `CN1CCN(Cc2ccc(NC(=O)c3cncc(C#Cc4cnccc4C(F)(F)F)c3)cc2C(F)(F)F)CC1`
Reply: inactive

Query: Write down the call the test reported for this molecule. Item: `COc1cccc(NC(=O)c2cccc(-c3cc(=O)c4c(OC)c(OC)c(OC)cc4o3)c2)c1`
Reply: inactive

Query: Write down the call the test reported for this molecule. Item: `c1ccc(-c2nn(-c3ccccc3)[n+](-c3ccccc3-c3ccccc3)n2)cc1`
Reply: inactive

Query: Write down the call the test reported for this molecule. Item: `O=S(=O)(NCCCNc1nccc(-c2c(-c3ccccc3)nc3occn23)n1)c1ccc(Cl)cc1`
Reply: inactive

Query: Write down the call the test reported for this molecule. Item: COc1ccc2c(/C=C3/C(=O)NC(=S)NC3C)cc(=O)oc2c1 (centres undefined)
Reply: inactive

Query: Write down the call the test reported for this molecule. Item: `CCOc1cc(CNc2ccc(N3CCOCC3)c(C(=O)O)c2)ccc1OC`
Reply: inactive

Query: Write down the call the test reported for this molecule. Item: COc1ccc2c(c1)OC1=C(C(=O)OC1)C2c1cc(OC)c(OC)c(OC)c1 (centres undefined)
Reply: inactive

Query: Write down the call the test reported for this molecule. Item: `C=C1C(=O)O[C@H]2[C@H]1CC/C(COC(=O)NCCc1c[nH]c3ccc(Cl)cc13)=C\CC[C@@]1(C)O[C@@H]21`
Reply: active

Query: Write down the call the test reported for this molecule. Item: `COc1cc(/C=C/C(=O)c2ccc(Nc3ncnc4ccccc34)cc2)cc(OC)c1`
Reply: inactive

Query: Write down the call the test reported for this molecule. Item: `CN1C(=O)N(C)[C@H]2NC(NN)=N[C@H]21`
Reply: inactive

Query: Write down the call the test reported for this molecule. Item: `C=CCn1c(SCC(=O)Nc2ccc(C(=O)/C=C/c3cc(OC)c(OC)c(OC)c3)cc2)nnc1-c1cc(-c2ccc(S(C)(=O)=O)cc2)nc2ccccc12`
Reply: inactive

Query: Write down the call the test reported for this molecule. Item: `O=C1Nc2ccccc2/C1=C\c1cccc(/C=C2/C(=O)Nc3ccccc32)n1`
Reply: active

Query: Write down the call the test reported for this molecule. Item: `CCOC(=O)c1c(SC)nn(-c2cc(=O)[nH]c3ccc(Br)cc23)c1N`
Reply: inactive
